molecular target: T1, Human CD137 ECD (human); assay: Biacore SPR, vs parent H183/L072
T1 construct: entry includes C-terminal His-tag and biotin acceptor peptide; also called human CD137 extracellular domain; 4-1BB
T1 sequence (chain, as listed by the source limits assumed): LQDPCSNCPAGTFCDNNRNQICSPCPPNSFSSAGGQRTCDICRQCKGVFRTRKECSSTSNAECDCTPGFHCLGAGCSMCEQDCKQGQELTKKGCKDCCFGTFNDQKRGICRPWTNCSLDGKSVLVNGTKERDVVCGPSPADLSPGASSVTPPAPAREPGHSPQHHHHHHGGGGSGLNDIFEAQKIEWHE
READOUT LABEL: fold change of affinity (fold)
Write the answer as a number in fold, unit excluded.

>  <BINDER>
H183/L072 VL L33E (antibody, name in Kabat numbering, V domains shown, Dual-Ig) VH: QVQLVESGGGLVQPGRSLRLSCAASGFTFSNAWMHWVRQAPGKGLEWVAQIKDKGNAYAAYYAPSVKGRFTISRDDSKNSIYLQMNSLKTEDTAVYYCHYVHYASASTVLPAFGVDAWGQGTTVTVSS VL: DIVMTQSPLSLPVTPGEPASISCQASQELVHMNRNTYEHWYQQKPGQAPRLLIYKVSNRFPGVPDRFSGSGSGTDFTLKISRVEAEDVGVYYCAQGTSVPFTFGQGTKLEIK

>  <OUTPUT UNIT>
fold

>  <ASSAY VALUE>
0.1

$$$$
>  <BINDER>
H183/L072 VL S93V (antibody, name in Kabat numbering, V domains shown, Dual-Ig) VH: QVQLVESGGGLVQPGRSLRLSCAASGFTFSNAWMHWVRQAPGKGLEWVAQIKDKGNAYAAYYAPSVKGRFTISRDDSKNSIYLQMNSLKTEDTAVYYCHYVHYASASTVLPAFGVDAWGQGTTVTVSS VL: DIVMTQSPLSLPVTPGEPASISCQASQELVHMNRNTYLHWYQQKPGQAPRLLIYKVSNRFPGVPDRFSGSGSGTDFTLKISRVEAEDVGVYYCAQGTVVPFTFGQGTKLEIK

>  <OUTPUT UNIT>
fold

>  <ASSAY VALUE>
1.1

$$$$
>  <BINDER>
H183/L072 VL Y32M (antibody, name in Kabat numbering, V domains shown, Dual-Ig) VH: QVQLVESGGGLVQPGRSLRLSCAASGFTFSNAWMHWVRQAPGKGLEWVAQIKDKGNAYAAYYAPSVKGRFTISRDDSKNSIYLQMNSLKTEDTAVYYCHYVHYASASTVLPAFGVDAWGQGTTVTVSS VL: DIVMTQSPLSLPVTPGEPASISCQASQELVHMNRNTMLHWYQQKPGQAPRLLIYKVSNRFPGVPDRFSGSGSGTDFTLKISRVEAEDVGVYYCAQGTSVPFTFGQGTKLEIK

>  <OUTPUT UNIT>
fold

>  <ASSAY VALUE>
0

$$$$
>  <BINDER>
H183/L072 VL Y32P (antibody, name in Kabat numbering, V domains shown, Dual-Ig) VH: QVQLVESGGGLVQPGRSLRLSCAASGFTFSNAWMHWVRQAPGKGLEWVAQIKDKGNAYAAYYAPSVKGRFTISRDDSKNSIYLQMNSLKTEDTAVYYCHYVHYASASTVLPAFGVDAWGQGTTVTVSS VL: DIVMTQSPLSLPVTPGEPASISCQASQELVHMNRNTPLHWYQQKPGQAPRLLIYKVSNRFPGVPDRFSGSGSGTDFTLKISRVEAEDVGVYYCAQGTSVPFTFGQGTKLEIK

>  <OUTPUT UNIT>
fold

>  <ASSAY VALUE>
0

$$$$
>  <BINDER>
H183/L072 VL N28K (antibody, name in Kabat numbering, V domains shown, Dual-Ig) VH: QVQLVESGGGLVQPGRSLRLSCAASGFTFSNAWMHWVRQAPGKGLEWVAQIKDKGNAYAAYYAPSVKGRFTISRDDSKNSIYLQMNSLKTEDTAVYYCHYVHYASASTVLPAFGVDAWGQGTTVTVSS VL: DIVMTQSPLSLPVTPGEPASISCQASQELVHMKRNTYLHWYQQKPGQAPRLLIYKVSNRFPGVPDRFSGSGSGTDFTLKISRVEAEDVGVYYCAQGTSVPFTFGQGTKLEIK

>  <OUTPUT UNIT>
fold

>  <ASSAY VALUE>
0.3

$$$$

The reported fold change of affinity of the binder H183/L072 VL G91T (antibody, name in Kabat numbering, V domains shown, Dual-Ig) VH: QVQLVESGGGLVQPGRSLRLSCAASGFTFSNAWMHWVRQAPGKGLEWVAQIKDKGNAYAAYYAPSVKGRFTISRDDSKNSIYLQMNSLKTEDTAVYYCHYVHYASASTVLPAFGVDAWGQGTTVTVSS VL: DIVMTQSPLSLPVTPGEPASISCQASQELVHMNRNTYLHWYQQKPGQAPRLLIYKVSNRFPGVPDRFSGSGSGTDFTLKISRVEAEDVGVYYCAQTTSVPFTFGQGTKLEIK was 0

# binder H183/L072 VL T97L (antibody, name in Kabat numbering, V domains shown, Dual-Ig) VH: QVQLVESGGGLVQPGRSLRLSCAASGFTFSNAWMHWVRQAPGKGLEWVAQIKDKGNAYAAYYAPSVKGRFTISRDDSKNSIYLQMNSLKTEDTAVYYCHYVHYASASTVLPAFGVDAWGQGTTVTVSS VL: DIVMTQSPLSLPVTPGEPASISCQASQELVHMNRNTYLHWYQQKPGQAPRLLIYKVSNRFPGVPDRFSGSGSGTDFTLKISRVEAEDVGVYYCAQGTSVPFLFGQGTKLEIK ; its fold change of affinity = 0.3

Briefly, fold change of affinity measured for H183/L072 VL S93P (antibody, name in Kabat numbering, V domains shown, Dual-Ig) VH: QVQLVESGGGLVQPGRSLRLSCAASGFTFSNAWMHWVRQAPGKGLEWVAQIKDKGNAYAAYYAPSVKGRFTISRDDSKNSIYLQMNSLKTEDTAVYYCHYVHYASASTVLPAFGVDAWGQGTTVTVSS VL: DIVMTQSPLSLPVTPGEPASISCQASQELVHMNRNTYLHWYQQKPGQAPRLLIYKVSNRFPGVPDRFSGSGSGTDFTLKISRVEAEDVGVYYCAQGTPVPFTFGQGTKLEIK : 0
